Reference source: PubChem BioAssay (NCI)

System: SNB-19 CNS
Assay protocol: NCI-60 one-dose screen, 48 h (100 = growth as untreated, 0 = no growth, -100 = all killed)
Condition label: 10 µM unless noted
The panel holds about 83,000 compounds, 20% with a hit somewhere; the sample as a whole holds those more often.
Classify as follows. Reported growth greater than or equal to 40%: yes (1). Reported growth below: no (0).

### Prompt Hi team, for Cn1cc(-c2cc(N)n3nc(-c4c[nH]c5ccccc45)cc3n2)c2cc(Br)ccc21 , is the recorded growth at or above 40%?
### Response no (0)

### Prompt Check if growth >= 40% (inclusive). Item: CC(C)C[C@H](NC(=O)CNC(=O)C[C@H]1O[C@@H]2OC3(C)CC[C@H]4[C@H](C)CC[C@@H]([C@H]1C)[C@@]24O3)B(O)O
### Response no (0)

###

Test system: ACHN renal
Assay protocol: NCI-60 one-dose screen, 48 h
Condition label: 10 µM unless noted
This is part of a sample that, as a whole, favours compounds with a hit. Of some 83,000 tested, about 20% had one in any assay. Active and inactive are the calls of the source. How the source made its calls: active means growth percent below 10; inactive means the rest.
Parameter call: string, one of active, inactive

### Prompt Status in this test for COc1ccc(N=Nc2c(N)nn3c(-c4ccc(OC)c(OC)c4)ccnc23)cc1 ?
### Response inactive

### Prompt Can you look up the reported call for Cc1cnc2ccc(Oc3ccccc3-c3ccccc3)nn12 for me?
### Response inactive

### Prompt Recorded call for O=C(c1ccc(O)cc1)C1[C@H](c2ccccc2Br)[C@@H](c2ccccc2)NC12C(=O)Nc1ccccc12 (some centres not stated) ?
### Response inactive

### Prompt Hi, do you know how CCOC(=O)/C(F)=C/C1CC1C1CCN(C(=O)OC(C)(C)C)CC1 (configuration not stated) came out in this test?
### Response inactive

### Prompt Given Cc1ccc(C2CC(c3ccc(NC(=S)Nc4ccccc4)cc3)=NN2c2ccc(S(N)(=O)=O)cc2)cc1 (configuration not stated) , state the outcome it received in this test.
### Response active

###

Tested on: RPMI-8226 leukemia
Assay protocol: NCI-60 one-dose screen, 48 h (100 = growth as untreated, 0 = no growth, -100 = all killed)
Condition label: 10 µM unless noted
This is part of a sample that, as a whole, favours compounds with a hit. Of some 83,000 tested, about 20% had one in any assay.
Measured growth, listed per entry for reference.
Express your answer in %, writing the number without its unit.

Some solved cases for reference:
COC(=O)c1cc(C(=O)C(C)(C)C)n2c3ccccc3c3ccccc3c12; 70.2
Cn1cc(-c2cc(N)n3nc(-c4c[nH]c5ccc(F)cc45)cc3n2)c2cccnc21; -30.3
CN(CCSSCCN1CCOCC1)C(=O)Oc1cc2c(c3ccccc13)[C@H](CCl)CN2C(=O)c1cc2cc(OCCCN3CCC3)ccc2[nH]1; -28.5
COc1cc(C2CC(c3ccc(F)cc3)=Nc3c(N)nc(N)nc3N2)ccc1Oc1nc(Nc2ccc(F)cc2)nc(N(C)C)n1 (centres undefined); 15.7
O=C(CSc1nnc(-c2ccc(-c3nc4ccccc4[nH]3)cc2)o1)Nc1ccccc1; 56.5
C#CCCCNCCNc1ccnc2cc(Cl)ccc12; 47.9

### Prompt Output growth of CN1CCN(C(=O)Oc2cc3c(c4ccccc24)[C@H](CCl)CN3C(=O)c2cc3cc(OCCCN4CCC4)ccc3[nH]2)[C@@H]2CSSC[C@H]21
### Response -23.6

### Prompt Return the recorded growth value; entry: Cc1ccc(N=Nc2c(N)nn3c(-c4cc5ccccc5oc4=O)ccnc23)cc1
### Response 9.76

### Prompt Dear colleague, please send me the reported growth for O=CNc1cccc(-n2cnc3cc(-c4ccc(O)cc4)ccc32)c1 when you can.
### Response 24.3

###

System: A549/ATCC NSCLC
Assay protocol: NCI-60 one-dose screen, 48 h (100 = growth as untreated, 0 = no growth, -100 = all killed)
Condition label: 10 µM unless noted
Protocol: Growth inhibition of the A549/ATCC human Non-Small Cell Lung tumor cell line is measured as a screen for anti-cancer activity. Cells are grown in 96 well plates and exposed to the test compound for 48 hours. Compounds are tested at a single concentration, which is 10^-5 M for most compounds. The reported endpoint is percent growth (GI% or GIPRCNT), where numbers from 0 - 100% represent growth inhibition, and numbers from -100% - 0 represent cell death. […]
The panel holds about 83,000 compounds, 20% with a hit somewhere; the sample as a whole holds those more often.
Note: every record was labeled by where its growth sits among interval 1 = under 50%, interval 2 = from 50% up to 70%, interval 3 = 70% and over

COc1ccc2nc(NC(=O)c3ccc(N(C)C)cc3)sc2c1; interval 2

### Prompt Record COc1cc(CNC(=O)C[C@H](C)CCC=C(C)C)ccc1OCc1cn(-c2ccc(Cl)c(Cl)c2)nn1 — which class?
### Response interval 1

### Prompt Hello team, could you let me know which band the following compound falls into: Cc1ccccc1NC(=O)c1cccc(NC(=O)CCl)c1
### Response interval 2

### Prompt Any idea which band O=CNc1ccc(-n2cnc3cc(-c4ccc(O)cc4)ccc32)cc1 is in?
### Response interval 3

###

Measured growth, listed per entry for reference.
Tested on: KM12 colon
Assay protocol: NCI-60 one-dose screen, 48 h (100 = growth as untreated, 0 = no growth, -100 = all killed)
Condition label: 10 µM unless noted
About 83,000 compounds went through this panel and 20% of them were active in at least one assay; those are over-represented in the sample as a whole.
Only the number, expressed in %, is required.

O=C(Nc1ccc(-c2ccc3c(c2)NC(=O)/C3=C\c2ccc[nH]2)cc1)Nc1ccc(Cl)c(C(F)(F)F)c1; 22.3

### Prompt Provide measured growth value, entry: COc1ccc(-c2nc3ccc(-c4nnc(SCC(=O)Nc5ccc(/C(C)=N\O)cc5)o4)cc3[nH]2)cc1
### Response 37.6

### Prompt // fetch growth given entry CCN(C(=O)CN1C(=O)/C(=C/c2ccco2)SC1=S)C1CCS(=O)(=O)C1 (centres undefined)
### Response 103

### Prompt Provide one value: measured growth of c1n[nH]cc1-c1nc2ccc3[nH]ncc3c2c2c1CC1(CCOCC1)CC2
### Response 47.3

### Prompt Tell me its growth given COC(=O)c1c(C(=O)OC)c2ccc3c4ccccc4ccc3n2c1C(=O)C(C)Br (centres undefined) as the entry.
### Response 91.5

### Prompt // fetch growth given entry Nc1cc2ccccc2c(=O)n1NC(=O)c1ccc(Br)cc1
### Response 92.7

###

Test system: MDA-MB-435 melanoma
Assay protocol: NCI-60 one-dose screen, 48 h (100 = growth as untreated, 0 = no growth, -100 = all killed)
Condition label: 10 µM unless noted
This is part of a sample that, as a whole, favours compounds with a hit. Of some 83,000 tested, about 20% had one in any assay.
Metric: growth (%)
Value expressed in %; do not type the unit.

Some solved entries appear below for comparison.
Clc1ccc(-c2nc3ccc(-c4nnc(SCc5ccccc5)o4)cc3[nH]2)cc1; 62.6
COc1ccc(N=Nc2c(N)nn3c(N)c(C#N)c(-c4ccccc4)nc23)cc1; 62.5

### Prompt For the compound COc1ccc2c(c1)N=c1c-2cc2c(O)[nH]c(=S)n2c1=O , report growth.
### Response 2.49

### Prompt Please supply the value of reported growth for the item O=C(NNC(=S)NC(=O)c1ccccc1)c1ccc(OCc2nc3ccc(Cl)cc3[nH]2)cc1
### Response -51.2

### Prompt Output measured growth for this item: Cc1nn(-c2ccccc2)c2nc(C)n(C(=O)N/N=C/c3cccc([N+](=O)[O-])c3)c(=O)c12
### Response 96.5

### Prompt Indicate its recorded growth; the compound in question is C#CCN(C)CCCOc1ccc(N(CC)C(=O)c2cc(C(C)C)c(O)cc2O)cc1Cl
### Response -26.1

### Prompt Provide only the value of recorded growth for O=C(N/N=C/c1ccoc1)c1[nH]c2ccc(Br)cc2c1-c1ccccc1
### Response -96

### Prompt Retrieve growth measured for c1n[nH]cc1-c1nc2ccc3[nH]ncc3c2c2c1CC1(CC2)COC1 and print it.
### Response 30.7

### Prompt Give the reported value of growth for this record: COc1cncc(-c2ccc3ncnc(N4CCc5ccc(Cl)cc54)c3c2)c1
### Response 53.6

### Prompt Given the compound Cn1cc(-c2cc(N)n3nc(-c4c[nH]c5ccccc45)cc3n2)c2ccccc21 , write its reported growth.
### Response -80.6

###

System: DU-145 prostate
Assay protocol: NCI-60 one-dose screen, 48 h
Condition label: 10 µM unless noted
This is part of a sample that, as a whole, favours compounds with a hit. Of some 83,000 tested, about 20% had one in any assay. Active and inactive are the calls of the source. The calls were made as follows: active = growth percent below 10; inactive = the rest.
Just give me one of these, please: active, inactive

CC[C@@]12CC(C(=O)OC)=C3Nc4cc5c(cc4[C@@]34CCN(C[C@H]3O[C@H]31)[C@@H]24)[C@@H]1[C@H](O5)[C@@H](O)[C@@]2(CC)CC(C(=O)OC)=C3Nc4cc(O)ccc4[C@@]34CCN1[C@@H]24; active
O=C(NNC(=S)NCCc1ccccc1)c1ccc(OCc2nc3ccc(Cl)cc3[nH]2)cc1; inactive
O=C(Cn1c(/C=C/c2ccc([N+](=O)[O-])cc2)nc2ccccc2c1=O)Nc1ccccc1; inactive
O=C(NNC(=S)NC(=O)c1ccccc1)c1ccc(OCc2nc3ccc(Cl)cc3[nH]2)cc1; inactive
Cc1cnc2ccc(Oc3ccccc3-c3ccccc3)nn12; inactive

### Prompt Please let me know the test result on file for Cc1nn(-c2ccccc2)c2nc(C)n(CC(=O)N/N=C/c3cccc([N+](=O)[O-])c3)c(=O)c12 .
### Response inactive

### Prompt So what was the verdict on COc1cc(/C=C/C(=O)c2ccc(S(=O)(=O)NCCNc3nc(N(C)C)nc(N4CCOCC4)n3)cc2)cc(OC)c1OC in this test?
### Response inactive

### Prompt Assay result, entry CC1=C(C)C(=O)C(N2CCSCC2)=CC1=O — outcome?
### Response inactive
